Tested on: NCI-H1755
Assay: relative viability (nuclei count vs DMSO), 5 days (fraction); higher = more cells survive
Settings: first compound 0.1 µM

| COMPOUND | relative viability |
| --- | --- |
| Cc1cn(-c2cc(NC(=O)c3ccc(C)c(Nc4nccc(-c5cccnc5)n4)c3)cc(C(F)(F)F)c2)cn1 [Nilotinib] + O=C(c1cc(Cc2n[nH]c(=O)c3ccccc23)ccc1F)N1CCN(C(=O)C2CC2)CC1 [Olaparib] (partner 8 µM) | 0.784 |
| Cc1cn(-c2cc(NC(=O)c3ccc(C)c(Nc4nccc(-c5cccnc5)n4)c3)cc(C(F)(F)F)c2)cn1 [Nilotinib] + CCNC(=O)c1noc(-c2cc(C(C)C)c(O)cc2O)c1-c1ccc(CN2CCOCC2)cc1 [Luminespib] (partner 0.01 µM) | 0.376 |
| Cc1cn(-c2cc(NC(=O)c3ccc(C)c(Nc4nccc(-c5cccnc5)n4)c3)cc(C(F)(F)F)c2)cn1 [Nilotinib] + Cc1nc(Nc2ncc(C(=O)Nc3c(C)cccc3Cl)s2)cc(N2CCN(CCO)CC2)n1 [Dasatinib] (partner 0.075 µM) | 0.184 |
| Cc1cn(-c2cc(NC(=O)c3ccc(C)c(Nc4nccc(-c5cccnc5)n4)c3)cc(C(F)(F)F)c2)cn1 [Nilotinib] + CS(=O)(=O)CCNCc1ccc(-c2ccc3ncnc(Nc4ccc(OCc5cccc(F)c5)c(Cl)c4)c3c2)o1 [Lapatinib] (partner 2 µM) | 0.551 |
